FYI, the data here is from a melting point compilation (Tetko et al.; mined from patent text by program, amines drawn as free bases though some values may be those of a salt).

Listed here: items and their measured melting point.
measuredQuantity: melting point

1. O=C(O)CCCCCc1cccc2cncn12    144 to 147 °C
2. COC(=O)c1cccc2c(C#N)c(OC)ccc12    210 to 211 °C
3. Cn1c(=O)c2c(nc3n2CC(O)CN3)n(C)c1=O (stereo unspecified)    360 °C
4. CC1(c2ccc3noc(-c4ccccc4)c3c2)OCCO1    69 to 71 °C
5. O=C(C=Cc1cccc(S(=O)(=O)NCc2cccc3ccccc23)c1)NO    177 °C
6. CSC1C(=O)Nc2cc(-c3ccccc3)ccc21 (stereo unspecified)    177 to 178 °C

---

measuredQuantity: melting point

1. CCCOc1ccccc1C1=NC(=O)C2=NC(S)=NC2=N1    305 to 307 °C
2. CNc1ccccc1C(=O)c1c(OC)cc(C)cc1OC    215 °C
3. CCN(CC)C(=O)c1ccc(C(c2cccc(O)c2)N2CC(C)NCC2C)cc1 (stereo unspecified)    175 to 177 °C
4. Cc1cnc2c(NC(=O)c3c(Cl)cccc3Cl)ccc(Br)c2c1    238 to 239 °C
5. Cc1cc(Br)ccc1C(=O)NCC(F)(F)F    124 to 126 °C
6. CCOC(=O)c1nc(N)sc1-c1cn2cc(C)ccc2n1    268 to 271 °C
7. CCOC(=O)c1nc(C)oc1C(=O)NC(C)(C)C    152 to 155 °C
8. O=C(O)C(=O)c1cn(Cc2ccc(F)cc2)c2ccc(-c3ccccc3)cc12    165 to 166 °C
9. CN(CC(=O)N(C)c1ccc(OCC(=O)N[C@@H](CC(N)=O)C(=O)[C@@H](C(N)c2ccccc2)[C@H](O)C(=O)N2CCC[C@H]2C(=O)NC(C)(C)C)cc1)c1ccccc1 (stereo partly specified)    107 to 112 °C
10. CN1CCN(Cc2ccc(NC(=O)c3ccc(Cl)c(C#Cc4ccc(NC5CC5)nn4)c3)cc2C(F)(F)F)CC1    133 to 134 °C
11. CN1CC2CN(C)CC(C1)C2OC(=O)c1ccccc1 (stereo unspecified)    100 to 102 °C
12. COc1ccc(ON2CN=C(c3ccccc3F)O2)cc1    99.1 °C
13. CC(=O)OCc1cc(O)c2c(c1)C(=O)c1cccc(C(C)=O)c1C2=O    190 to 191 °C
14. Cc1cc(C(=O)c2ccccc2)c(C)n1C(C)C(=O)Nc1ccccc1 (stereo unspecified)    165 to 166 °C
15. Cc1cc(-c2ccc(Cl)cc2)cnc1N=CN(C)C    99 °C
16. CCCCC(OC(=O)Nc1ccc(-c2ncn(-c3ccc(OC(F)(F)F)cc3)n2)cc1)C(=O)OCC (stereo unspecified)    135 to 139 °C
17. O=c1[nH]c(=O)n2c(c1Cc1ccccc1)SCCC2    227 to 229 °C
18. CC(Oc1ccc(Oc2cnc3cc(Cl)ccc3n2)cc1)C(=O)Nc1ccc(C(F)(F)F)cc1 (stereo unspecified)    176 to 178 °C
19. COC1OCC2C(=O)C3CCCCC3CC12 (stereo unspecified)    78 to 79 °C
20. CCC(=O)NCc1ccc2ccn(C3CCN(CCc4ccc(F)cc4)CC3)c2c1    141 to 142 °C
21. c1cc(OC[C@H]2CO2)c2cccnc2c1    79 to 81 °C
22. CCN1C(=O)Cc2cc3ccccc3cc2S1(=O)=O    170 to 171 °C
23. OCC(I)c1ccccc1 (stereo unspecified)    71 to 72 °C
24. CC(NC(=O)Cc1cc(F)cc(F)c1)C(=O)NC1C(=O)N(C)Cc2ccccc21 (stereo unspecified)    174 to 175 °C
25. CC#Cc1cc(N(C)C)nc(Nc2ccccc2)n1    150 to 152 °C
26. Cc1c(NC(=O)c2ccc(-c3ccc(F)cc3)cc2)ccc2cc(CN3C(C)CCCC3C)cnc12 (stereo unspecified)    167 to 168 °C
27. N#CCCCCCCCCCOc1cccc(C(N)=O)c1    96 to 97 °C
28. COc1ccc(CC(=O)NC(NC(=NC#N)Nc2ccccc2Cl)C(C)(C)C)cc1OC (stereo unspecified)    135 to 136 °C
29. COc1cccc(Nc2ncc3cc4ccccc4n3n2)c1    191 to 193 °C
30. N#Cc1cc(C(=O)NNC(=O)c2occc2-c2ccccc2O)ccc1O    135 to 140 °C
31. CNC(=O)c1ccccc1Nc1nc(Nc2ccc3c(c2)CCN(S(C)(=O)=O)CC3)ncc1Cl    251 to 256 °C
32. O=C(NN=Cc1ccnc2ccccc12)c1ccc(C(F)(F)F)cc1    240 °C
33. Cc1cccc2c1cc(C(=O)NCC1CCN(CC3(O)CCOCC3)CC1)c(=O)n2C(C)C    222 °C
34. COc1ccc2[nH]c3c(c2c1)CCSc1ccccc1-3    151 to 154 °C
35. O=S(=O)(NCCc1cccnc1)c1ccc(Cl)cc1    143 to 145 °C
36. CCOC(=O)CCc1cc(O)nn1-c1ccccc1    150 to 151 °C
37. COc1ccc(C2=NN(Cc3ccccc3N)C(=O)SC2)cc1OC    105 °C
38. O=C(O)c1coc2ccc(OCc3ccccc3)cc2c1=O    170 to 173 °C
39. O=c1cc(-c2ccc(O)c(F)c2)oc2ccc(CO)cc12    256 to 258 °C
40. CC1(C)CC(OC(=O)c2ccccc2)CC(C)(C)N1OCC=Cc1ccccc1    115 to 116 °C
41. COc1ccccc1NC(=S)NC(NC(=O)c1ccc(C)cc1)C(F)(F)F (stereo unspecified)    212 to 214 °C

---

measuredQuantity: melting point (°C)

1. CCc1c(CN(C)S(=O)(=O)c2cccc(Cl)c2)nn(-c2ccc(Cl)cc2Cl)c1-c1ccc(Br)cc1    78
2. CC(=O)c1ccc2c(c1)C(c1ccccc1F)=NC(C)C(=O)N2C (stereo not given)    65

---

measuredQuantity: melting point

1) CCCCN(C)S(=O)(=O)C1=C(C)NC(C)=C(C(=O)OCC2CC2)C1c1cccc([N+](=O)[O-])c1 (stereo not given)    93 to 96 °C
2) CCOC(=O)c1cnc(-c2ccccc2OC(C)CC)[nH]c1=O (stereo not given)    134 to 136 °C
3) CCCc1nsc(NC(=O)NC)c1C(=O)OCC    173 to 174 °C
4) CNC(=O)C(Cc1c[nH]c2ccccc12)NC(=O)C(C)(CC(C)C)c1ccc(Cl)cc1S (stereo not given)    75 to 78 °C
5) CCOC(=O)c1cc2cc(C)cc(C)c2[nH]1    141 to 143 °C

---

measuredQuantity: melting point

1. CN(C)c1ccc(C(=O)Nc2ccccc2CCC2CCCCN2C)cc1 (centres undefined)    115 to 116 °C
2. CCOC(=O)c1c(C)cc2c(c1C)c(=O)n(-c1ccccc1C(F)(F)F)c(=O)n2CCN1CCN(C(=O)C=Cc2ccccc2)CC1    119 to 120 °C
3. CC(C)Cc1ccc(C(C)C(=O)ON(C(N)=O)C(C)c2cc3ccccc3s2)cc1 (centres undefined)    123 to 128 °C
4. CCCCCCOc1ccc(CCCCCCCCC(=O)O)cc1    79 to 81 °C
5. CCCCN1CCC(C(=O)O)(S(=O)(=O)c2ccc(Oc3ccc(Cl)cc3)cc2)CC1    201 °C
6. CC#CCOc1ccc(S(=O)(=O)N(C)C(C(=O)NO)c2ccc(OCCCNC(=O)OCc3ccccc3)cc2)cc1 (centres undefined)    48 to 50 °C
7. O=c1[nH]c2cc(C(F)(F)F)cc(C(F)(F)F)c2[nH]c1=O    305 to 308 °C
8. COc1ccc(C=Cc2cc3cc(Br)ccc3o2)cc1    190 to 194 °C
9. CCCCN(CCCC)CCCOc1ccc(-c2cn3cccc(C)c3n2)cc1C    63 to 66 °C

---

// values below are reported melting point
measuredQuantity: melting point

1) CC(=O)c1cc(F)ccc1Oc1nc2ccc([N+](=O)[O-])cc2cc1Cc1ccccc1    132 to 133 °C
2) O=C(OCC12CCCN(CCC1)C2)c1c[nH]c2ccccc12    207 to 209 °C
3) C=Cc1cc2ccc(-c3ccc(C(=O)OC)cc3)cc2cc1C12CC3CC(CC(C3)C1)C2    221 to 222 °C
4) CN(Cc1ccccc1)CC1CCSc2[nH]c3ccccc3c21 (centres undefined)    91 to 93 °C
5) COc1ccc(Cn2nnc(-c3cccc(C(=O)NCc4ccc(C(=O)O)cc4)c3)n2)cc1    202 to 205 °C
6) CC(C)(C)[Si](OCC1OC(n2ccc(N)nc2=S)C(O)(CC[Si](C)(C)C)C1O)(c1ccccc1)c1ccccc1 (centres undefined)    126 °C
7) CCOC(=O)/C(=N\OC(C)(CC)C(=O)OC(C)(C)C)c1csc(NC(c2ccccc2)(c2ccccc2)c2ccccc2)n1 (centres undefined)    122 to 125 °C
8) Brc1cc(-c2ccccc2)cc(-c2ccccc2)c1    109 °C
9) CC(CO)N1CC(COc2cccc(Cl)c2)OC1=O (centres undefined)    76 to 78 °C
10) CCN(CC)c1cc(C)nc(Oc2c(C)cc(C)cc2C)c1C    180 to 181 °C
11) CCc1cccc(CC(=O)O)c1OCCCc1cn(-c2ncc(C(F)(F)F)cc2Cl)nc1C(C)C    93 to 95 °C
12) COC(=O)CCC(=O)c1ccc(NC(=O)c2ccc(C)cc2)cc1    192 to 195 °C
13) COC(=O)c1ccc2c(ccn2Cc2cccc(NC(=O)OC3CCCC3)c2)c1    131 to 133 °C
14) CC(=O)OC1C2C=CC1C1N=NC21 (centres undefined)    58 °C
15) CS(=O)c1ccc(-c2nc(-c3nc4ccccc4c(=O)[nH]3)ccc2OCCO)cc1 (centres undefined)    261 to 262 °C
16) COc1ccc(C(C)=O)cc1NC(=O)C(C)CCl (centres undefined)    92 to 97 °C
17) CC(C)(C)c1cc(SCCCC(=O)O)cc(C(C)(C)C)c1O    112 to 114 °C
18) Cc1ccc(C(=S)c2cccc3c2NC(=O)C3)cc1    167 to 169 °C
19) CC(=O)Oc1c(Cl)ccc2c(-c3ccccc3)c(Sc3ccccc3)c(Sc3ccccc3)c(-c3ccccc3)c12    138 to 140 °C
